# target_system: … (SEQ ID NO: 1)-HLA-A*02 complex (soluble, biotinylated) (human)
# test_name: SPR (BIAcore) or BLI (Octet) per Example 3, biotinylated pHLA immobilised, 25 C
property_name: t1/2 (h)
Record the value in h, omitting the unit from your answer.

Use these answered entries as a reference point.
Fill in: t1/2 of ImmTAC molecule comprising a79 (SEQ ID NO: 7) and b66 (SEQ ID NO: 23) (TCR, part only; not given: anti-CD3 scFv, linker, TCR constants, part only) TCR alpha, part: GDAKTTQPNSMESNEEEPVHLPCNHSTISGTDYIHWYRQLPSQGPEYVIHGLTSNVNNRMASLAIAEDRKSSTLILHRATLRDAAVYYCILILGHSRLGNYIATFGKGTKLSVIP TCR beta, part: DGGITQSPKYLFRKEGQNVTLSCEQNLNHDAMYWYRQDPGQGLRLIYYSQIMGDEQKGDIAEGYSVSREKKESFPLTVTSAQKNPTAFYLCASSPWTGGSAPIRFGPGTRLTVT is ___
9.16

Now consider ImmTAC molecule comprising a28 (SEQ ID NO: 6) and b58 (SEQ ID NO: 21) (TCR, part only; not given: anti-CD3 scFv, linker, TCR constants, part only) TCR alpha, part: GDAKTTQPNSMESNEEEPVHLPCNHSTISGTDYIHWYRQLPSQGPEYVIHGLTSNVNNRMASLAIAEDRKSSTLILHRATLRDAAVYYCILILGHSRAGNYIATFGKGTKLSVIP TCR beta, part: DGGITQSPKYLFRKEGQNVTLSCEQNLNHDAMYWYRQDPGQGLRLIYYSQIMGDEQKGDIAEGYSVSREKKESFPLTVTSAQKNPTAFYLCASSWWTGGSSPISFGPGTRLTVT and answer again.
8.9

Now consider ImmTAC molecule comprising a28 (SEQ ID NO: 6) and b60 (SEQ ID NO: 19) (TCR, part only; not given: anti-CD3 scFv, linker, TCR constants, part only) TCR alpha, part: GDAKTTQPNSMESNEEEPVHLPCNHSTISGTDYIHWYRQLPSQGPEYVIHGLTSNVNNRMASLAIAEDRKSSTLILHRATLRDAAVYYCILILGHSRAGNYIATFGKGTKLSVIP TCR beta, part: DGGITQSPKYLFRKEGQNVTLSCEQNLNHDAMYWYRQDPGQGLRLIYYSQIMGDEQKGDIAEGYSVSREKKESFPLTVTSAQKNPTAFYLCASSWWTGGASEISFGPGTRLTVT and answer again.
2.8

Now consider ImmTAC molecule comprising a28 (SEQ ID NO: 6) and b57 (SEQ ID NO: 10) (TCR, part only; not given: anti-CD3 scFv, linker, TCR constants, part only) TCR alpha, part: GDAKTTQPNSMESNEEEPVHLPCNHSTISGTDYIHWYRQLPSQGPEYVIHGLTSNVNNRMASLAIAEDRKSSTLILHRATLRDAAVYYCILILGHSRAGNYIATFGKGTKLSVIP TCR beta, part: DGGITQSPKYLFRKEGQNVTLSCEQNLNHDAMYWYRQDPGQGLRLIYYSQIMGDEQKGDIAEGYSVSREKKESFPLTVTSAQKNPTAFYLCASSWWTSGASPISFGPGTRLTVT and answer again.
8.3

***
Fill in: t1/2 of ImmTAC molecule comprising a79 (SEQ ID NO: 7) and b69 (SEQ ID NO: 14) (TCR, part only; not given: anti-CD3 scFv, linker, TCR constants, part only) TCR alpha, part: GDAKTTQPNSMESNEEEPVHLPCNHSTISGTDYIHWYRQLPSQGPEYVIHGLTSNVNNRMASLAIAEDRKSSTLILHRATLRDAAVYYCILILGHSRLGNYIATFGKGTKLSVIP TCR beta, part: DGGITQSPKYLFRKEGQNVTLSCEQNLNHDAMYWYRQDPGQGLRLIYYSQIMGDEQKGDIAEGYSVSREKKESFPLTVTSAQKNPTAFYLCASSWWTGGSAEIRFGPGTRLTVT is ___
20.4
